Data origin, for the record: patent US20120029177A1

system: SNU-C4 xenografted nude mice; experiment: Biodistribution study in SNU-C4 xenografted nude mice after intravenous injection; assay type: in vivo, mouse; conditions: liver, 1 hr after intravenous injection
MEASURED PROPERTY: % ID/g Liver (% ID/g)

Worked cases, answers included:
O=C([O-])CN1CCN(CC(=O)[O-])CCN(CC(=O)[O-])CC1.[68Ga+3] [^68Ga-NOTA, reference compound] : 1.04
O=C([O-])CN1CCNCCN(CC(=O)[O-])CCN(CC(=O)[O-])CC1.[68Ga+3] [^68Ga-DO3A, reference compound] : 1.02
N[C@@H](CN1CCN(CC(=O)[O-])CCN(CC(=O)[O-])CCN(CC(=O)[O-])CC1)C(=O)O.[68Ga+3] (stereo in doubt) [^68Ga-DO3A-ala] : 2.35
NC(CN1CCN(CC(=O)[O-])CCNCCN(CC(=O)[O-])CC1)C(=O)[O-].[68Ga+3] (centres unmarked) [^68Ga-DO2A-ala] : 1.39

A = NC(CNC(=O)CN1CCN(CC(=O)[O-])CCN(CC(=O)[O-])CC1)C(=O)[O-].[68Ga+3] (centres unmarked) [^68Ga-NOTA-ala]
B = O=C([O-])CN1CCNCCN(CC(=O)[O-])CCNCC1.[68Ga+3] [^68Ga-DO2A, reference compound]
C = O=C([O-])CN1CCN(CC(=O)[O-])CCN(CC(=O)O)CCN(CC(=O)[O-])CC1.[68Ga+3] [^68Ga-DOTA, reference compound]
D = NC(CNC(=O)CN1CCN(CC(=O)[O-])CCN(CC(=O)[O-])CCN(CC(=O)[O-])CC1)C(=O)O.[68Ga+3] (centres unmarked) [^68Ga-DOTA-ala]
Rank ascending by % ID/g Liver. Answer by listing the labels in the order asked for.
C, D, A, B
(C: 0.32 % ID/g, D: 0.56 % ID/g, A: 1.05 % ID/g, B: 2.31 % ID/g)
